biological target: T1, hen egg lysozyme (Gallus gallus (hen), UniProt P00698); experiment: SPR; Biacore T200; HEL immobilised on CM5 chip (200 RU); VHH flowed over; 25 °C; PBS with 0.005% Tween 20; global fit to a 1:1 binding model; conditions: both partners purified
T1 construct: hen egg lysozyme (lysozyme C), bought from Wako Pure Chemical; also called HEL; source: bought: Wako Pure Chemical (Cat. No. 126-02671), used without further purification
T1 sequence (P00698 19-147): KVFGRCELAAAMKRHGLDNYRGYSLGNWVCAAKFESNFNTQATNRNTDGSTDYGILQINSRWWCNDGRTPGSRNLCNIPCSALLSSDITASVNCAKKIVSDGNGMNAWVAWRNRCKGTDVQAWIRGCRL
The entries below are paired with their reported kon.

BINDER	UNITS OF MEASURE	kon
D3-L11 D115A (VHH, as the VHH chain of m2 with the stated change; source: E. coli BL21(DE3), purified (Ni-NTA, SEC)) VHH: DVQLVESGGGSVQAGGSLRLSCAASGSTDSIEYMTWFRQAPGKAREGVAALYTHTGNTYYTDSVKGRFTISQDKAKNMAYLRMDSVKSEDTAIYTCGATRKYVPVRFALDQSSYAYWGQGTQVTVSS	M⁻¹ s⁻¹	6.11e+06
D3-L11 H54A (VHH, as the VHH chain of m2 with the stated change; source: E. coli BL21(DE3), purified (Ni-NTA, SEC)) VHH: DVQLVESGGGSVQAGGSLRLSCAASGSTDSIEYMTWFRQAPGKAREGVAALYTATGNTYYTDSVKGRFTISQDKAKNMAYLRMDSVKSEDTAIYTCGATRKYVPVRFALDQSSYDYWGQGTQVTVSS	M⁻¹ s⁻¹	3.48e+06
D3-L11 P104A (VHH, as the VHH chain of m2 with the stated change; source: E. coli BL21(DE3), purified (Ni-NTA, SEC)) VHH: DVQLVESGGGSVQAGGSLRLSCAASGSTDSIEYMTWFRQAPGKAREGVAALYTHTGNTYYTDSVKGRFTISQDKAKNMAYLRMDSVKSEDTAIYTCGATRKYVAVRFALDQSSYDYWGQGTQVTVSS	M⁻¹ s⁻¹	1.74e+07
D3-L11 T55A (VHH, as the VHH chain of m2 with the stated change; source: E. coli BL21(DE3), purified (Ni-NTA, SEC)) VHH: DVQLVESGGGSVQAGGSLRLSCAASGSTDSIEYMTWFRQAPGKAREGVAALYTHAGNTYYTDSVKGRFTISQDKAKNMAYLRMDSVKSEDTAIYTCGATRKYVPVRFALDQSSYDYWGQGTQVTVSS	M⁻¹ s⁻¹	3.77e+06
